- Assay explanation: LogD
- Measurement parameters: pH 7.4; In vitro LogD
Threshold check on logd: strictly below 3 is class 1; on or above 3 is class 0.

Solved entries:
{"columns": ["Compound", "Discrete label"],
 "data": [
  ["CC(C)[C@H](Nc1ncnc2[nH]c(-c3cnn(CC(=O)N(C)C)c3)cc12)c1ccc2c(c1)OCCO2 (single isomer, unassigned) [ASAP-0013833]", "class 1"],
  ["CC(C)[C@H](Nc1ncnc2[nH]c(-c3cnn(CC(N)=O)c3)cc12)c1ccc2c(c1)OCCO2 [ASAP-0008449]", "class 1"],
  ["CC(C)[C@@H](Nc1ncnc2[nH]c(-c3cnn(C)c3)cc12)c1ccc2c(c1)S(=O)(=O)CCC2 [ASAP-0008678]", "class 0"],
  ["CC(C)[C@@H](Nc1ncnc2[nH]c(-c3cnn(C)c3C#N)cc12)c1ccc2c(c1)S(=O)(=O)CCC2 [ASAP-0008651]", "class 0"],
  ["CC(C)[C@@H](Nc1ncnc2[nH]c(-c3cnn(CC(N)=O)c3)cc12)c1ccc2c(c1)S(=O)(=O)CCC2", "class 1"]
]}

Dear colleague, could you confirm whether logd of CC(C)[C@H](Nc1ncnc2[nH]ccc12)c1ccc2c(c1)NC(=O)CO2 falls below 3? Thanks.
class 1

Now try CC(C)[C@H](Nc1ncnc2[nH]c(-c3cnn(CC(N)=O)c3)cc12)c1ccc2c(c1)S(=O)(=O)CCC2 (single isomer, unassigned) [ASAP-0011428] .
class 1

Now try CC(C)[C@H](Nc1ncnc(N)c1Cl)c1ccc2c(c1)S(=O)(=O)CCC2 (racemic) .
class 1

Now try CC(C)[C@H](Nc1ncnc2[nH]cc(C(=O)NC3CC3)c12)c1ccc2c(c1)S(=O)(=O)CCC2 (racemic) [ASAP-0008647] .
class 0

###

In this section we review reported log10 solubility_mean values for a set of molecules.
- Assay explanation: In vitro kinetic solubility
- Measurement parameters: In vitro kinetic solubility, ph 7.4
Hi team, quick reminder: these entries are log10 of solubility_mean (µM).

{"columns": ["Molecule", "log10 solubility_mean"],
 "data": [
  ["CC(C)[C@@H](Nc1ncnc2[nH]c(-c3cnn(CC(N)=O)c3)cc12)c1ccc2c(n1)OCCO2 [ASAP-0008646]", 2.59],
  ["CC(C)[C@H](Nc1ncnc2[nH]cc(C(N)=O)c12)c1ccc2c(c1)OCCO2 (racemic)", 2.57],
  ["COc1ccc([C@@H](Cc2nnn[nH]2)NC(=O)c2ncnc3[nH]ccc23)cc1", 2.60],
  ["CC(C)[C@H](Nc1ncnc2[nH]ccc12)c1ccc2c(c1)S(=O)(=O)CCC2", 2.57],
  ["CC(C)[C@H](Nc1ncnc2[nH]c(-c3cnn(CC(N)=O)c3)cc12)c1ccc2c(c1)OCCO2 [ASAP-0008449]", 2.45]
]}

Need log10 solubility_mean of CC(C)[C@@H](Nc1ncnc2[nH]c(-c3cnn(C)c3)cc12)c1ccc2c(c1)S(=O)(=O)CCC2 (single isomer, unassigned) [ASAP-0012329] , thanks.
2.05

Now try CNCc1cc(-c2cc3c(N[C@@H](c4ccc5c(c4)S(=O)(=O)CCC5)C(C)C)ncnc3[nH]2)co1 [ASAP-0010745] .
2.51

Now try CC(C)[C@H](Nc1ncnc2[nH]c(C(=O)N[C@H]3CCN(C)C3)cc12)c1ccc2c(c1)S(=O)(=O)CCC2 .
2.60

Now try CNC(=O)c1cccc(-c2cc3c(N[C@H](c4ccc5c(c4)S(=O)(=O)CCC5)C(C)C)ncnc3[nH]2)c1 (single isomer, unassigned) .
1.11

Now try CNC(=O)Cn1cc(-c2cc3c(N[C@H](c4ccc5c(c4)S(=O)(=O)CCC5)C(C)C)ncnc3[nH]2)cn1 (single isomer, unassigned) .
2.51

Now try CC(C)[C@@H](Nc1ncnc2[nH]c(-c3cnn(CC(=O)N(C)C)c3)cc12)c1ccc2c(c1)S(=O)(=O)CCC2 [ASAP-0013747] .
2.41

###

- Test system: HeLa-ACE2 cells
- Measurement parameters: HeLa-ACE2 cytotoxicity; highest measured response of the dose series
Quantity: perc_max_measured (%)
Only the number, expressed in %, is required.

# count of solved cases: 3
{"columns": ["Compound", "Assay system", "perc_max_measured [%]"],
 "data": [
  ["CC(C)[C@H](Nc1ncnc2[nH]c(-c3cnn(C)c3)cc12)c1ccc2c(c1)S(=O)(=O)CCC2 (single isomer, unassigned) [ASAP-0012327]", "HeLa-ACE2 cells", 100.334],
  ["CC(C)[C@@H](Nc1ncnc2[nH]c(-c3ccc4cncn4c3)cc12)c1ccc2c(c1)S(=O)(=O)CCC2 [ASAP-0011215]", "HeLa-ACE2 cells", 108.268],
  ["CC(C)[C@H](Nc1ncnc2[nH]c(-c3cnn(C)c3C#N)cc12)c1ccc2c(c1)NC(=O)CO2 (single isomer, unassigned) [ASAP-0013255]", "HeLa-ACE2 cells", 92.424]
]}

Here is another compound to look at.
Value wanted: perc_max_measured (HeLa-ACE2 cells) of entry CNCc1cc(-c2cc3c(N[C@H](c4ccc5c(c4)S(=O)(=O)CCC5)C(C)C)ncnc3[nH]2)co1 (single isomer, unassigned) [ASAP-0011169]
96.832

###

- Assay explanation: LogD
- Measurement parameters: pH 7.4; In vitro LogD
In this section we review reported logd values for a set of compounds.
Answer with the value's number alone.

{"columns": ["Compound", "Obs value"],
 "data": [
  ["CNC(=O)c1cc2c(N[C@@H](c3ccc4c(c3)S(=O)(=O)CCC4)C(C)C)ncnc2[nH]1 (single isomer, unassigned) [ASAP-0012346]", 2.4],
  ["CC(C)[C@@H](Nc1ncnc2[nH]c(-c3cnn(CC(N)=O)c3)cc12)c1ccc2c(n1)OCCO2 (single isomer, unassigned) [ASAP-0012315]", 2.4],
  ["CC(C)[C@@H](Nc1ncnc2[nH]c(-c3cnn(CC(=O)N(C)C)c3)cc12)c1ccc2c(c1)S(=O)(=O)CCC2 [ASAP-0013747]", 2.2]
]}

Need logd of CC(C)[C@@H](Nc1ncnc2[nH]c(-c3cnn(CC(=O)N(C)C)c3)cc12)c1ccc2c(c1)OCCO2 , thanks.
2.3

Now try CC(C)[C@@H](Nc1ncnc2[nH]c(-c3cnn(C)c3C#N)cc12)c1ccc2c(n1)NC(=O)CO2 (single isomer, unassigned) [ASAP-0011180] .
3.7

Now try CC(C)[C@H](Nc1ncnc2[nH]c(-c3cnn(C)c3C#N)cc12)c1ccc2c(c1)OCCO2 .
3.3

###

In this section we review reported perc_remaining values for a set of compounds.
- Assay explanation: Hepatic microsomal stability, HLM
- Format: in vitro ADME, human
- Measurement parameters: In vitro human liver microsomal stability
Only the number, expressed in %, is required.

{"columns": ["Compound", "Unit label", "Obs value"],
 "data": [
  ["C[C@H](C(=O)O)[C@@H](NC(=O)c1ncnc2[nH]ccc12)c1ccc(Br)cc1", "%", 92.211],
  ["COc1ccc([C@H](Cc2nnn[nH]2)NC(=O)c2ncnc3[nH]ccc23)cc1", "%", 105.597],
  ["CNC(=O)c1c[nH]c2ncnc(N[C@@H](c3ccc4c(c3)S(=O)(=O)CCC4)C(C)C)c12", "%", 17.0],
  ["CNC(=O)c1cc2c(N[C@@H](c3ccc4c(c3)NC(=O)CO4)C(C)C)ncnc2[nH]1 [ASAP-0011219]", "%", 6.0],
  ["CC(C)[C@H](Nc1ncnc2[nH]c(-c3cnn(C)c3)cc12)c1ccc2c(c1)S(=O)(=O)CCC2 (single isomer, unassigned)", "%", 7.0]
]}

Here is another compound to look at.
Need perc_remaining of CC(C(=O)O)C(NC(=O)c1ncnc2[nH]ccc12)c1ccc(Br)cc1 (mixture of isomers) , thanks.
103.0

###

- Assay explanation: Hepatic microsomal stability, MLM
- Assay type: in vitro ADME
- Measurement parameters: In vitro mouse liver microsomal stability; no cofactor
Quantity: perc_remaining_no_cofactor (%)
Only the number, expressed in %, is required.

# count of solved cases: 6
{"columns": ["Compound", "Quantity", "Obs value"],
 "data": [
  ["CC(C)[C@H](CO)Nc1ncnc2[nH]ccc12", "perc_remaining_no_cofactor", 93.0],
  ["CNC(=O)c1cc2c(N[C@@H](c3ccc4c(c3)OCCO4)C(C)C)ncnc2[nH]1", "perc_remaining_no_cofactor", 112.0],
  ["CC(C)[C@H](Nc1ncnc2[nH]c(-c3cnn(CC(N)=O)c3)cc12)c1ccc2c(c1)S(=O)(=O)CCC2 (racemic)", "perc_remaining_no_cofactor", 109.0],
  ["CC(C)[C@@H](Nc1ncnc2[nH]c(-c3cnn(CC(N)=O)c3)cc12)c1ccc2c(c1)OCCO2", "perc_remaining_no_cofactor", 87.0],
  ["CC(C)[C@@H](Nc1ncnc2[nH]c(-c3cnn(C)c3C#N)cc12)c1ccc2c(n1)OCCO2 [ASAP-0010716]", "perc_remaining_no_cofactor", 99.0],
  ["CC(C)[C@@H](Nc1ncnc2[nH]c(-c3cnn(CC(=O)N(C)C)c3)cc12)c1ccc2c(c1)OCCO2", "perc_remaining_no_cofactor", 98.0]
]}

Need perc_remaining_no_cofactor of CNC(=O)c1cc2c(N[C@@H](c3ccc4c(c3)S(=O)(=O)CCC4)C(C)C)ncnc2[nH]1 , thanks.
100.0

Now try CC(C)[C@@H](Nc1ncnc2[nH]c(-c3cnn(C)c3C#N)cc12)c1ccc2c(c1)OCCO2 (racemic) .
97.0
